Listed here: items and their measured inhibition at 100 µM.
Target: human ETB receptor (Homo sapiens, UniProt P24530)
Construct: expressed in transfected cells; host or cells: COS7 cells
Sequence (P24530 27-442): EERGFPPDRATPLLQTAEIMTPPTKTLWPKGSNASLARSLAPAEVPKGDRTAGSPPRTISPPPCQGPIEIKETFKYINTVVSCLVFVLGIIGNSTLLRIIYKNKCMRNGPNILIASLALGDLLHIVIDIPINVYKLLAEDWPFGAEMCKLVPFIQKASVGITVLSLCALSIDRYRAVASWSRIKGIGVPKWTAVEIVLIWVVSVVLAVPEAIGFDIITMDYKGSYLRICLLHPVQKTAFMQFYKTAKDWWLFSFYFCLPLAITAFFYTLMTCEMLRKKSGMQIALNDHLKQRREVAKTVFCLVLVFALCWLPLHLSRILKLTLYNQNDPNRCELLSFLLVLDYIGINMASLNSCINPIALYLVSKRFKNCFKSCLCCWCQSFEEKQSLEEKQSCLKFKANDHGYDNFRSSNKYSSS
Assay: Endothelin binding inhibition, Binding Test #2: competition with 125I-ET-1 for ETB receptors on transfected COS7 cell membranes
Settings: read-out: ETB % inhibition @ 100 μM, @ 100 μM; incubation at 24° C.
// units = %; emit number, no label

Sample records with inhibition at 100 µM:
| Input smiles | inhibition at 100 µM / % |
| --- | --- |
| Cc1noc(NS(=O)(=O)c2ccsc2C(=O)Oc2ccccc2)c1C | 31 |
| Cc1ccc(OC(=O)c2sccc2S(=O)(=O)Nc2onc(C)c2Cl)cc1 | 43 |
| Cc1noc(NS(=O)(=O)c2ccsc2C(=O)Oc2ccc3c(c2)OCO3)c1C | 30 |
| Cc1cc(C)c(OC(=O)c2sccc2S(=O)(=O)Nc2onc(C)c2C)c(C)c1 | 8 |

query: What value of inhibition at 100 µM has been recorded for this entry: `Cc1noc(NS(=O)(=O)c2ccsc2C(=O)Oc2ccccc2)c1Cl`
result: 31
